# system.tested: UniProt:P05177
# Sequence (P05177 whole entry): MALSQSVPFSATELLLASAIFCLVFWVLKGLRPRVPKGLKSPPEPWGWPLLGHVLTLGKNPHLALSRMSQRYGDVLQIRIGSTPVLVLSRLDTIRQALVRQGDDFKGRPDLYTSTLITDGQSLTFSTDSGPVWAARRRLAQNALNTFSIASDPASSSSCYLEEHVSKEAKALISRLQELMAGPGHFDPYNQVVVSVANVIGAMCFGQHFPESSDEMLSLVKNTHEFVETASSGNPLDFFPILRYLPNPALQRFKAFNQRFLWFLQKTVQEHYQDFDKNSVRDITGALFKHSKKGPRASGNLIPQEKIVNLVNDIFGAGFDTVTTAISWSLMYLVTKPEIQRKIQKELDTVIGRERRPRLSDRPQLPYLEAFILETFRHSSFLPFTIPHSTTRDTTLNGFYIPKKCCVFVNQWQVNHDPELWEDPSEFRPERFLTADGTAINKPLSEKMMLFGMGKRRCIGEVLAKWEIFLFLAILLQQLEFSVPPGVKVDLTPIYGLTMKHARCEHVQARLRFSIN
# assay.method.text: Drug metabolism in human liver microsomes assessed as CYP1A2-mediated metabolism by measuring increase in half life in presence of furafylline (reference value: 10.8 mins)
# Assay type: ADME, Microsome
# test.parameters: with furafylline
property.measured: half-life
Report field: quantity (unit follows the number).

What does the data say about its half-life? Entry: CCN(CC)C(=O)C[C@H]1C(=O)Nc2cc(NC(=O)c3cc(OC)c(OC)c(OC)c3Br)c(Oc3cc(C)cc(C)c3)cc2C(=O)N1C 11.4 min

###

# Test system: MDA-MB-231
# assay.method.text: Antitumor activity against human MDA-MB-231 cells incubated for 48 hrs by Celltiter Blue reagent based 3D microtiter assay
# Type: functional
Labelling field: enter met if recorded GI50 is less than 10 nM. Enter not met if it equals or exceeds that cut-off.

{"entry.smiles": "[2H]C([2H])([2H])Oc1cc(C(=O)Nc2cc3c(cc2Oc2cc(C)cc(C)c2)C(=O)N[C@@H](CC(=O)N(C)C)C(=O)N3)c(Br)c(OC([2H])([2H])[2H])c1OC([2H])([2H])[2H]", "system.tested": "MDA-MB-231", "assigned.label": "not met"}

Input [2H]C([2H])([2H])Oc1cc(C(=O)Nc2cc3c(cc2Oc2cc(C)cc(C)c2)C(=O)N[C@@H](CC(=O)N(OC([2H])([2H])[2H])C([2H])([2H])[2H])C(=O)N3)c(Br)c(OC([2H])([2H])[2H])c1OC([2H])([2H])[2H] ; condition: GI50 strictly below 10 nM. Does it hold? met

Record: [2H]C([2H])([2H])Oc1cc(C(=O)Nc2cc3c(cc2Oc2cc(C)cc(C)c2)C(=O)N[C@@H](CC(=O)N(C)OC)C(=O)N3)c(Br)c(OC([2H])([2H])[2H])c1OC([2H])([2H])[2H] not met

Now give it for CCN(CC)C(=O)C[C@H]1C(=O)Nc2cc(NC(=O)c3cc(OC)c(OC)c(OC)c3Br)c(Oc3cc(C)cc(C)c3)cc2C(=O)N1C too. not met

Proceed to [2H]C([2H])([2H])Oc1cc(C(=O)Nc2cc3c(cc2Oc2cc(C)cc(C)c2)C(=O)N[C@@H](CC(=O)N(C([2H])([2H])C([2H])([2H])[2H])C([2H])([2H])C([2H])([2H])[2H])C(=O)N3)c(Br)c(OC([2H])([2H])[2H])c1OC([2H])([2H])[2H] not met

###

# system.tested: CYP2D6 (Homo sapiens, UniProt P10635)
# Sequence (P10635 whole entry): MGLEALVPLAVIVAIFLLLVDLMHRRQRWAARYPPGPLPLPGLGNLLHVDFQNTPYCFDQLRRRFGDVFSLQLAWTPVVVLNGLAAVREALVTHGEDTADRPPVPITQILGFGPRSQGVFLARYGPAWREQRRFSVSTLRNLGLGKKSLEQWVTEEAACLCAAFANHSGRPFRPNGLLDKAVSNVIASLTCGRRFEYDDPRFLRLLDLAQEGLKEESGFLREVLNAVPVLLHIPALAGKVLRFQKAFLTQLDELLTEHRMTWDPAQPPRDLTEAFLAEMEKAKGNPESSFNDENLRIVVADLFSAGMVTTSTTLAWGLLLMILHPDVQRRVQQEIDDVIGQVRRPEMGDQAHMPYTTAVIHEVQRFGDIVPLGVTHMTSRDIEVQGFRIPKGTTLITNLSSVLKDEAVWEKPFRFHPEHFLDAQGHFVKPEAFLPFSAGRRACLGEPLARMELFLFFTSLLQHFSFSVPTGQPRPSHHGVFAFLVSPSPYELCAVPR
# assay.method.text: Drug metabolism in human liver microsomes assessed as CYP2D6-mediated metabolism by measuring increase in half life in presence of quinidine (reference value: 10.8 mins)
# Format: ADME, Microsome
# test.parameters: with quinidine
property.measured: half-life (min)
Give bare numbers, in min.

# query: half-life of entry CCN(CC)C(=O)C[C@H]1C(=O)Nc2cc(NC(=O)c3cc(OC)c(OC)c(OC)c3Br)c(Oc3cc(C)cc(C)c3)cc2C(=O)N1C 11.6

###

# assay.method.text: Metabolic stability in mouse liver microsomes assessed as half life at 100 uM preincubated for 5 mins followed by NADPH addition and measured upto 60 mins by LC-MS/MS analysis
# Format: ADME, Microsome
# test.parameters: time < 65 min
property.measured: half-life at 100 µM
The reply should read as a number followed by its unit.

Give its half-life at 100 µM value. Item: CCN(CC)C(=O)C[C@H]1C(=O)Nc2cc(NC(=O)c3cc(OC)c(OC)c(OC)c3Br)c(Oc3cc(C)cc(C)c3)cc2C(=O)N1C 13.8 min
